Origin of measurements: patent US3954793A

System: Rutgers A strain house flies
test-details: topical application, percent kill after 24 hours, resistant Rutgers A strain
Assay type: in vivo, female)
test-parameters: GS 13005 1.0 + synergist 5.0 μg/fly
Procedure: In Table IX, and in the tables following it, the doses of topically applied insecticides and of synergists unless otherwise noted are expressed as micrograms per fly (μg/fly). The synergistic effect of O-(2-propynyl) oximes with mobam was determined from topical application tests on susceptible, female, IN/WHO strain house flies and from tests on resistant, female, Rutgers A strain house flies. […]
Can you tell me percent kill after 24 hours, with GS 13005 for the items I'm about to list?
Give bare numbers, in %.

>>> print(df.to_string())
                                   compound                 target_system  measured
0          C#CCOCc1ccc(Cl)c([N+](=O)[O-])c1  Rutgers A strain house flies        63
1  C#CCOC(c1ccc(Cl)cc1)C(C)[N+](=O)[O-] (stereo not drawn)  Rutgers A strain house flies        95

Next up:
**Query** Request the reported percent kill after 24 hours, with GS 13005 associated with `C#CCOCc1cccc(Cl)c1[N+](=O)[O-]`
**Result** 83

----------
Tested on: male mice
test-details: extension of sleeping time of depressant drugs by synergists
Format: in vivo, male mice (Swiss albino white)
test-parameters: Secobarbital 37 mg/kg; synergist 110 mg/kg one hour prior
quantity-name: Mean Sleeping Time, Secobarbital (min)
One number for each entry, in min.

Please review the following examples before continuing.
                item_smiles                     quantity_name  measured
0  C#CCOCc1ccc(Cl)c(Cl)c1Cl  Mean Sleeping Time, Secobarbital        60
1    C#CCON=Cc1ccc(Cl)cc1Cl  Mean Sleeping Time, Secobarbital        55

Go through the list and state Mean Sleeping Time, Secobarbital for each entry.
1. C#CCn1ncc2cc([N+](=O)[O-])ccc21
2. C#CCOCc1c(Cl)cccc1[N+](=O)[O-]

**Result**
1: 50; 2: 44

Go through the list and state Mean Sleeping Time, Secobarbital for each entry.
1. C#CCOCc1cccc(Cl)c1[N+](=O)[O-]
2. C#CCON=Cc1cccc([N+](=O)[O-])c1
3. C#CCOCc1ccc(Cl)c([N+](=O)[O-])c1
4. C#CCOCc1cccc2ccccc12

**Result**
1. 32
2. 106
3. 47
4. 96

----------
Test system: IN/WHO strain house flies
test-details: topical application, percent kill after 24 hours, susceptible IN/WHO strain
Type: in vivo, female)
test-parameters: Mobam 0.10 + synergist 0.50 μg/fly
quantity-name: percent kill after 24 hours, with Mobam
The number alone won't do; follow it with the unit.

Go through the list and state percent kill after 24 hours, with Mobam for each entry.
1. C#CCOCc1c(Cl)ccc(Cl)c1Cl [II-E]
2. C#CCOCc1ccc(Cl)c(Cl)c1 [II-C]
3. C#CCON=Cc1cccc([N+](=O)[O-])c1 [I-B]
4. C#CCON=C(C)c1ccc(Cl)cc1 [I-D]
5. C#CCOCc1ccc(Cl)c(Cl)c1Cl [II-D]

**Result**
["33%", "27%", "0%", "20%", "50%"]

----------
Tested on: Rutgers A strain house flies
test-details: topical application, percent kill after 24 hours, resistant Rutgers A strain
Format: in vivo, female)
test-parameters: Mobam 0.40 + synergist 2.0 μg/fly
quantity-name: percent kill after 24 hours, with Mobam (%)
Numbers only, in %.

In [3]: df
Out[3]:
            item_smiles                            quantity_name  measured
0  C#CCOCc1c(Cl)cccc1Cl  percent kill after 24 hours, with Mobam       100

Go through the list and state percent kill after 24 hours, with Mobam for each entry.
1. C#CCOCc1ccc(Cl)cc1[N+](=O)[O-]
2. C#CCOCc1c(Cl)cccc1[N+](=O)[O-]
3. C#CCOCc1cccc(Cl)c1[N+](=O)[O-]
4. C#CCOCc1cccc([N+](=O)[O-])c1Cl

**Result**
[70, 97, 37, 52]
